These data points were gathered from paper PMC2929534.

Recorded stoichiometry N values for a group of proteins are listed next.
# experimental-target: the molecule itself
# assay-protocol: dynamic light scattering

protein	stoichiometry N
AsiA V14A mutant (natural protein, bacteriophage T4, UniProt P32267 1-90, looked up) MNKNIDTVREIITAASILIKFSREDIVENRANFIAFLNEIGVTHEGRKLNQNSFRKIVSELTQEDKKTLIDEFNEGFEGVYRYLEMYTNK	2
AsiA I17A mutant (natural protein, bacteriophage T4, UniProt P32267 1-90, looked up) MNKNIDTVREIITVASALIKFSREDIVENRANFIAFLNEIGVTHEGRKLNQNSFRKIVSELTQEDKKTLIDEFNEGFEGVYRYLEMYTNK	2
AsiA E39A mutant (natural protein, bacteriophage T4, UniProt P32267 1-90, looked up) MNKNIDTVREIITVASILIKFSREDIVENRANFIAFLNAIGVTHEGRKLNQNSFRKIVSELTQEDKKTLIDEFNEGFEGVYRYLEMYTNK	2
